- study-system: 5-HT2A (Homo sapiens, UniProt P28223)
- Construct: host or cells: HEK293
- Sequence (P28223 whole entry): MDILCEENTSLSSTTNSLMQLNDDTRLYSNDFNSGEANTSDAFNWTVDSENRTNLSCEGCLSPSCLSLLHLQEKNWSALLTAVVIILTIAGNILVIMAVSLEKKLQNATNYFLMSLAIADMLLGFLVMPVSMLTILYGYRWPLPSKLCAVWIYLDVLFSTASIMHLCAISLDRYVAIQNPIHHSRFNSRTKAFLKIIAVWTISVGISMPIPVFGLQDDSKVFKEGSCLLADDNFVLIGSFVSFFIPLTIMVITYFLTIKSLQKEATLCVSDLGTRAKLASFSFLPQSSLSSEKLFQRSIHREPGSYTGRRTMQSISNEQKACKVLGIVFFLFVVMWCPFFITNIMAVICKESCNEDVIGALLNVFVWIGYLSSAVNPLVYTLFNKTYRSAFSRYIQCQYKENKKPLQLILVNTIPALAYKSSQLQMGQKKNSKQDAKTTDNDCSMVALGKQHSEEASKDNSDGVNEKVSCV
- protocol-summary: FLIPR Ca2+ flux functional assay, 5-HT2A (HEK293)
- Assay type: cell-based
- test-conditions: HEK293, agonist activity, HEK293 cells expressing 5-HT2A
Binary label based on Emax with cut-off 80%: below gives Y, not below gives N.

>>> df
                                   compound                           study_system  class_assignment
0  COc1cc(F)c2[nH]nc(CCN3CCC4CC43)c2c1 (stereo not drawn)  5-HT2A (Homo sapiens, UniProt P28223)                 N
1           CCCN(CCC)CCc1n[nH]c2cccc(OC)c12  5-HT2A (Homo sapiens, UniProt P28223)                 N
2  COc1cc2c(CCN3CCC3C)n[nH]c2cc1F (stereo not drawn)  5-HT2A (Homo sapiens, UniProt P28223)                 Y
3          COc1cc2c(CCN(C)C3CC3)n[nH]c2cc1F  5-HT2A (Homo sapiens, UniProt P28223)                 Y
4              COc1ccc2[nH]nc(CCN(C)C)c2c1F  5-HT2A (Homo sapiens, UniProt P28223)                 Y
5           CCN(C)CCc1n[nH]c2cc(F)cc(OC)c12  5-HT2A (Homo sapiens, UniProt P28223)                 Y

###

- study-system: 5-HT2C (Homo sapiens, UniProt P28335)
- Construct: host or cells: HEK293
- Sequence (P28335 33-458): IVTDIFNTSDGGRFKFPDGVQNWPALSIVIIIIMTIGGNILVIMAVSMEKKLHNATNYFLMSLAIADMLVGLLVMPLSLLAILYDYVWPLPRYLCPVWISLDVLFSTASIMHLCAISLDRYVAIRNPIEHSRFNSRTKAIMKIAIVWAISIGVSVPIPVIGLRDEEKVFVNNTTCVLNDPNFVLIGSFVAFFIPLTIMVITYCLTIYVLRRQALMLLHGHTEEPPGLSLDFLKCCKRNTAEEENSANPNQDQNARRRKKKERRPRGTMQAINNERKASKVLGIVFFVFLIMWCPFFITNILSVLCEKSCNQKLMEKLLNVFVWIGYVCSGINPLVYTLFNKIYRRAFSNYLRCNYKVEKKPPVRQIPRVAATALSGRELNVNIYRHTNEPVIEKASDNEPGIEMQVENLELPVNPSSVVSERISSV
- protocol-summary: FLIPR Ca2+ flux functional assay, 5-HT2C (HEK293)
- Assay type: cell-based
- test-conditions: HEK293, agonist activity, HEK293 cells expressing 5-HT2C
Emax overview
measured-parameter: Emax (%)

                                   molecule  units_of_measure  quantitative_result
0  CN(C)CCc1n[nH]c2c(F)cc(F)cc12 [Example A35]                 %                   54
1  COc1ccc2[nH]nc(CCNCc3ccccc3F)c2c1 [Example A64]                 %                   82
2  CCN(C)CCc1n[nH]c2c(F)cc(F)cc12 [Example A36]                 %                   55
3  COc1c(F)ccc2[nH]nc(CCN(C)C)c12 [Example A1]                 %                   84
4  COc1cc2c(CCN(C)C)n[nH]c2cc1F [Example A5]                 %                  105

###

- study-system: 5-HT2C (Homo sapiens, UniProt P28335)
- protocol-summary: FLIPR Ca2+ flux functional assay, 5-HT2C (HEK293)
- test-conditions: agonist activity, HEK293 cells expressing 5-HT2C
pEC50: −log10 of the molar value.
measured-parameter: pEC50

>>> print(df.to_string())
                                   compound  measured_parameter  quantitative_result
0            CCN(C)CCc1n[nH]c2c(F)cc(F)cc12               pEC50                 6.14
1             Fc1ccc2[nH]nc(CCN3CCCC3)c2c1F               pEC50                 5.75
2  COc1ccc(F)c2[nH]nc(CCN3CCC4CC43)c12 (stereo not shown)               pEC50                 6.78
3          COc1cc2c(CCN(C)C(C)C)n[nH]c2cc1F               pEC50                 5.38
4           COc1cc(F)c2[nH]nc(CCN3CCC3)c2c1               pEC50                 5.93
5      COc1cccc(CNCCc2n[nH]c3ccc(OC)cc23)c1               pEC50                 5.90
6  COc1cc(F)c2[nH]nc(CCN3CCC4CC43)c2c1 (stereo not shown)               pEC50                 6.69
7           CCN(C)CCc1n[nH]c2ccc(F)c(OC)c12               pEC50                 7.81
8                CN(C)CCc1n[nH]c2ccc(F)cc12               pEC50                 7.47
9         COc1ccccc1CNCCc1n[nH]c2cccc(F)c12               pEC50                 6.78

###

- study-system: 5-HT2B (Homo sapiens)
- Construct: host or cells: CHO-K1
- Sequence (P41595 whole entry, species assumed): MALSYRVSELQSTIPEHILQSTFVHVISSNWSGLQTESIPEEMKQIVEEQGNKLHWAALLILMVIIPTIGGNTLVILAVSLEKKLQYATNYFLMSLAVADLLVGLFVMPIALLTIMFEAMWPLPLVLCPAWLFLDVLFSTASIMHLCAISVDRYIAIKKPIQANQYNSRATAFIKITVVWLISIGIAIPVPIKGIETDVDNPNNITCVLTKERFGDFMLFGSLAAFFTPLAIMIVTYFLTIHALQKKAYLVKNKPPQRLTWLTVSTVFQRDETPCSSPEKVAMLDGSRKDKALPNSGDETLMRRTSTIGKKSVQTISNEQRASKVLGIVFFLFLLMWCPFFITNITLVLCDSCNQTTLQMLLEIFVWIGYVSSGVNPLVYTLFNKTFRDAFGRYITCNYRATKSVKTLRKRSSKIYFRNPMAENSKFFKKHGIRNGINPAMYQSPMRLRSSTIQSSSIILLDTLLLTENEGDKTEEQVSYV
- protocol-summary: Activation in a similar Ca2+ flux assay at a single concentration, 5-HT2B
- Format: cell-based
- test-conditions: head prints 10 µM
Entries annotated with measured 5-HT2B % Activation @ 10 µM
measured-parameter: 5-HT2B % Activation @ 10 µM (%)

                              compound  quantitative_result
 0    COc1ccc2[nH]nc(CCNCc3ccccc3)c2c1                    0
 1        COc1ccc2[nH]nc(CCN(C)C)c2c1F                    0
 2   CC(C)N(C)CCc1n[nH]c2c(F)cc(F)cc12                    0
 3          CN(C)CCc1n[nH]c2cccc(F)c12                    0
 4     COc1ccc(F)c2[nH]nc(CCN3CCC3)c12                   17
 5       Fc1ccc2[nH]nc(CCN3CCCC3)c2c1F                   18
 6  COc1cc(F)c2[nH]nc(CCN(C)C(C)C)c2c1                    0
 7    COc1ccc2[nH]nc(CCN(C)C(C)C)c2c1F                    0
 8  COc1c(F)ccc2[nH]nc(CCN(C)C(C)C)c12                   17
 9      COc1cc2c(CCN3CCCC3)n[nH]c2cc1F                    5
10      COc1cc(F)c2[nH]nc(CCN(C)C)c2c1                    2

###

- study-system: 5-HT2A (Homo sapiens)
- Construct: host or cells: HEK293
- protocol-summary: FLIPR Ca2+ flux functional assay, 5-HT2A (HEK293)
- Format: cell-based
- test-conditions: HEK293, agonist activity, HEK293 cells expressing 5-HT2A
Some molecules, each annotated with its measured Emax.
measured-parameter: Emax

>>> df
                                    molecule  measured_parameter  result
 0           COc1ccc(F)c2[nH]nc(CCN3CCC3)c12                Emax     88%
 1             CCN(CC)CCc1n[nH]c2ccc(OC)cc12                Emax   58.6%
 2             COc1cc2c(CCN3CCC3)n[nH]c2cc1F                Emax     90%
 3            COc1c(F)ccc2[nH]nc(CCN(C)C)c12                Emax     82%
 4            COc1cc(F)c2[nH]nc(CCN(C)C)c2c1                Emax     79%
 5                CN(C)CCc1n[nH]c2ccc(F)cc12                Emax     82%
 6          COc1ccc(F)c2[nH]nc(CCN3CCCC3)c12                Emax     70%
 7           COc1cc(F)c2[nH]nc(CCN3CCC3)c2c1                Emax     94%
 8      COc1cccc(CNCCc2n[nH]c3ccc(OC)cc23)c1                Emax     63%
 9  COc1cc2c(CCN3CCC4CC43)nn(C)c2cc1F (centres unmarked)                Emax     77%
10           CCN(C)CCc1n[nH]c2c(F)cc(OC)cc12                Emax     85%
